- testedSystem: CDK-2 enzyme, complexed with cyclin A (Homo sapiens)
- experimentDescription: CDK2 enzyme inhibition assay (33P phosphorylation of peptide […], filter plate)
- experimentalSetup: CDK-2/cyclin A, 0.1 mM ATP, 40 min at 30° C.
pIC50: −log10 of the molar value.
Criterion: pIC50 meeting or surpassing 6. Met: Fulfilled. Not met: Not fulfilled.

smilesNotation: CC(=O)N[C@H]1CC[C@H](Nc2cc(Nc3ccc(S(=O)(=O)N(C)C)cc3)n3ncc(C(C)C)c3n2)CC1
qualitativeLabel: Fulfilled
--
smilesNotation: O=S(=O)(Nc1nccs1)c1ccc(Nc2cc(OC3CCCCC3)nc3ccnn23)cc1
qualitativeLabel: Fulfilled
--
smilesNotation: CS(=O)(=O)c1ccc(Nc2cc(Cl)nc3c(Cc4ccccc4)cnn23)cc1
qualitativeLabel: Not fulfilled

input: Given CC(C)c1cnn2c(Nc3ccc(S(=O)(=O)N(C)C)cc3)cc(NCC(C)(C)CN(C)C)nc12 , state whether its pIC50 is at least 6.
output: Not fulfilled

input: Then this compound: N[C@H]1CC[C@H](Nc2cc(Nc3ccc(Oc4ccc(F)cc4)cc3)n3ncc(Cl)c3n2)CC1
output: Fulfilled

input: Please do the same for Oc1cccc(-c2cc(Nc3ccccc3)n3nccc3n2)c1 as well.
output: Not fulfilled

input: Also, CC(C)c1cnn2c(Nc3ccc(S(=O)(=O)N(C)C)cc3)cc(O[C@H]3CC[C@H](N)CC3)nc12 please.
output: Fulfilled

input: Now this one: CN(C)S(=O)(=O)c1ccc(Nc2cc(N[C@@H]3CCCC[C@@H]3N)nc3c(Br)cnn23)cc1
output: Fulfilled

---

Listing: IC50 of selected molecules
- testedSystem: PDK1 enzyme (Homo sapiens)
- Sequence (O15530 whole entry): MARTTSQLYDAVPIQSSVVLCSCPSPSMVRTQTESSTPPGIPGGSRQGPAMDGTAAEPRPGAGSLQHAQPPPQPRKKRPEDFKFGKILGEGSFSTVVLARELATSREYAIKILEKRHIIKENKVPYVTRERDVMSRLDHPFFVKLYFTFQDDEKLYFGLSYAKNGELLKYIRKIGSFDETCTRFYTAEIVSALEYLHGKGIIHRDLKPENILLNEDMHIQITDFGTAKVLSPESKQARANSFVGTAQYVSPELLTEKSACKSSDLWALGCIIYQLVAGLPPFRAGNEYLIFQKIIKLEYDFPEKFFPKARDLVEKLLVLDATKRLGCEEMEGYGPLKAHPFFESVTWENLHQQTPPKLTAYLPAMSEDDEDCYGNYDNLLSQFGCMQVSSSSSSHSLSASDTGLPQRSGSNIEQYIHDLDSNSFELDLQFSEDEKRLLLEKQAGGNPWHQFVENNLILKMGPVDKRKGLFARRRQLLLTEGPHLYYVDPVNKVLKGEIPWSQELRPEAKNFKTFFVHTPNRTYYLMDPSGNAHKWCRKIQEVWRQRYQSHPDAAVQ
- experimentDescription: PDK1 kinase inhibition assay (33P phosphorylation of synthetic peptide, filter plate)
- Type: biochemical
- experimentalSetup: 0.01 mM ATP, 60 min at 30° C.; read-out: PDK1 IC50
The answer is to be given in µM; state only the numeric part.

input: Field request: IC50 | item: Brc1cccc(-c2cc(NCc3ccncc3)n3nccc3n2)c1
output: 34.6

input: What do you have for CCc1cnn2c(Nc3ccc(S(=O)(=O)N(C)C)cc3)cc(N[C@H]3CC[C@H](N)CC3)nc12 ?
output: 2.44

input: Likewise for CCNc1cc(Nc2ccc(S(C)(=O)=O)cc2)n2ncc(C(C)C)c2n1 ?
output: 45.3

---

- testedSystem: CDK-2 enzyme, complexed with cyclin A (Homo sapiens)
- experimentDescription: CDK2 enzyme inhibition assay (33P phosphorylation of peptide […], filter plate)
- experimentalSetup: CDK-2/cyclin A, 0.1 mM ATP, 40 min at 30° C.
The following compounds are listed with their measured IC50 values.
Numbers only here, please. The scale is nM.

The examples below pair each entry with its known result.
compound: CC(C)c1cnn2c(Nc3ccc(S(=O)(=O)N(C)C)cc3)cc(C(=O)N3CCC(O)CC3)nc12 [Example 120]
testedSystem: CDK-2 enzyme, complexed with cyclin A (Homo sapiens)
quantitativeResult: 594
--
compound: CC(C)c1cnn2c(Nc3ccc(S(=O)(=O)N(C)C)cc3)cc(Cl)nc12 [Example 27]
testedSystem: CDK-2 enzyme, complexed with cyclin A (Homo sapiens)
quantitativeResult: 240

input: What value of IC50 has been recorded for this entry: CNS(=O)(=O)c1ccc(Nc2cc(Cl)nc3c(C(C)C)cnn23)cc1 [Example 46]
output: 76

input: Same read-out for CN(C)S(=O)(=O)c1ccc(Nc2cc(N[C@H]3CC[C@@H](N)CC3)nc3c(S(C)(=O)=O)cnn23)cc1 [Example 200] ?
output: 11200

input: Next entry: O=S(=O)(c1ccccc1)c1ccc(Nc2cc(Cl)nc3c(Br)cnn23)cc1 [Example 136]
output: 204

input: Quick one: O=S(=O)(c1ccc(Nc2cc(Cl)nc3c(Cl)cnn23)cc1)c1cccs1 [Example 188]
output: 89

input: Query O=S(=O)(c1ccc(Nc2ccnc3ccnn23)cc1)N1CCOCC1 [Example 16] next
output: 3350

input: What do we get for CC(C)c1cnn2c(Nc3ccc(S(=O)(=O)N(C)C)cc3)cc(N(C)c3ccncc3)nc12 [Example 119] ?
output: 22700

---

- testedSystem: CDK-2 enzyme, complexed with cyclin A (Homo sapiens)
- experimentDescription: CDK2 enzyme inhibition assay (33P phosphorylation of peptide […], filter plate)
- experimentalSetup: CDK-2/cyclin A, 0.1 mM ATP, 40 min at 30° C.
reportedProperty: pIC50
// returns pIC50 (minus log10 of molar concentration), number only

molecule: N[C@H]1CC[C@H](Nc2cc(Nc3ccc(Oc4ccccc4)cc3)n3ncc(Br)c3n2)CC1
testedSystem: CDK-2 enzyme, complexed with cyclin A (Homo sapiens)
pIC50: 7.00

input: Record request: pIC50 value, item CC(C)c1cnn2c(Nc3ccc(S(=O)(=O)N(C)CCN(C)C)cc3)cc(N[C@H]3CC[C@H](N)CC3)nc12
output: 6.89

input: What do we get for CCc1cnn2c(Nc3ccc(S(C)(=O)=O)cc3)ccnc12 ?
output: 6.14

input: What would you report for O=S(=O)(Nc1ccccn1)c1ccc(Nc2cc(Cl)nc3ccnn23)cc1 ?
output: 5.79

input: Try this molecule too: NS(=O)(=O)c1ccc(Nc2ccnc3ccnn23)cc1
output: 5.75

input: Please answer likewise for N[C@H]1CC[C@H](Nc2cc(Nc3ccc(Oc4cncc(Cl)c4)cc3)n3ncc(Cl)c3n2)CC1
output: 7.74

input: And for CCc1cnn2c(Nc3ccc(S(C)(=O)=O)cc3)cc(N[C@H]3CC[C@@H](N)CC3)nc12 ?
output: 5.66

input: Do the same for CC(C)c1cnn2c(Nc3ccc(S(=O)(=O)N(C)C)cc3)cc(N3CCC(N)C3)nc12 (stereo not drawn) please
output: 5.70

input: Also need CCN(CC)c1cc(Nc2ccc(S(=O)(=O)N(C)C)cc2)n2ncc(C(C)C)c2n1 , thanks.
output: 6.18

input: Please do the same for CC(C)c1cnn2c(Nc3ccc(S(=O)(=O)N(C)C)cc3)cc(NCCN)nc12 as well.
output: 5.12

input: Continue with CC(C)COc1cc(Nc2ccc(S(=O)(=O)NCCN(C)C)cc2)n2ncc(C(C)C)c2n1
output: 6.43

input: Input CC(C)c1cnn2c(Nc3ccc(S(=O)(=O)N(C)C)cc3)cc(CN3CCC(N)CC3)nc12
output: 7.43

input: Request: N[C@H]1CC[C@H](Nc2cc(Nc3ccc(Oc4ccccc4)cc3)n3ncc(Cl)c3n2)CC1
output: 7.27

input: Also need CS(=O)(=O)c1ccc(Nc2ccnc3ccnn23)cc1 , thanks.
output: 4.98

input: Same for NS(=O)(=O)c1ccc(Nc2cc(Cl)nc3ccnn23)cc1
output: 6.14

input: Another molecule to check: CC(C)c1cnn2c(Nc3ccc(S(=O)(=O)N(C)C)cc3)cc(NCCCN3CCOCC3)nc12
output: 6.02

input: Continue with CN(C)S(=O)(=O)c1ccc(Nc2cc(N[C@H]3CC[C@H](N)CC3)nc3c(C#N)cnn23)cc1
output: 8.15

input: Same lookup for CN(C)S(=O)(=O)c1ccc(Nc2cc(Cl)nc3c(Br)cnn23)cc1 , please.
output: 6.89

input: Same again, this time with CN(C)S(=O)(=O)c1ccc(Nc2cc(N[C@H]3CC[C@H](N)CC3)nc3ccnn23)cc1
output: 7.01

input: Repeat with CN(C)S(=O)(=O)c1ccc(Nc2cc(O[C@@H]3CCNC3)nc3c(Cl)cnn23)cc1
output: 6.62

input: // repeat for N[C@H]1CC[C@H](Nc2cc(Nc3ccc(Sc4cccs4)cc3)n3ncc(Cl)c3n2)CC1 and report
output: 7.33

input: Repeat for the following molecule: CC(C)c1cnn2c(Nc3ccc(S(=O)(=O)N(C)C)cc3)cc(NCC3CCNCC3)nc12
output: 6.17

---

Parameter: IC50. Scope: all listed entries.
- testedSystem: CDK-2 enzyme, complexed with cyclin A (Homo sapiens, UniProt P24941)
- experimentDescription: CDK2 enzyme inhibition assay (33P phosphorylation of peptide […], filter plate)
- experimentalSetup: CDK-2/cyclin A, 0.1 mM ATP, 40 min at 30° C.
- Protocol: The assay mixture containing the inhibitor and CDK-2 enzyme, complexed with cyclin A (0.4 U/ml) was mixed together in a microtiter plate in a final volume of 50 μl and incubated for 40 min at 30° C. […] The filtration plate was dried for 10 min at 65° C., scintillant added and phosphorylated peptide quantified in a scintillation counter (Trilux, PerkinElmer) […]
Give the value, in units of nM, as a plain number.

molecule: CC(C)COc1cc(Nc2ccc(S(=O)(=O)N(C)CCN(C)C)cc2)n2ncc(C(C)C)c2n1
testedSystem: CDK-2 enzyme, complexed with cyclin A (Homo sapiens, UniProt P24941)
quantitativeResult: 1280
--
molecule: O=S(=O)(c1ccc(Nc2cc(N[C@H]3CC[C@H](O)CC3)nc3c(Br)cnn23)cc1)N1CCCC1
testedSystem: CDK-2 enzyme, complexed with cyclin A (Homo sapiens, UniProt P24941)
quantitativeResult: 183
--
molecule: Clc1cc(NCc2ccncc2)n2ncc(Br)c2n1
testedSystem: CDK-2 enzyme, complexed with cyclin A (Homo sapiens, UniProt P24941)
quantitativeResult: 230
--
molecule: Cc1cccc(-c2cc(Nc3ccc(S(=O)(=O)N4CCOCC4)cc3)n3nccc3n2)c1
testedSystem: CDK-2 enzyme, complexed with cyclin A (Homo sapiens, UniProt P24941)
quantitativeResult: 1760
--
molecule: NS(=O)(=O)c1ccc(Nc2cc(OC3CCCCC3)nc3ccnn23)cc1
testedSystem: CDK-2 enzyme, complexed with cyclin A (Homo sapiens, UniProt P24941)
quantitativeResult: 300

input: Form: Entry = CN(C)S(=O)(=O)c1ccc(Nc2cc(N[C@H]3CC[C@H](N)CC3)nc3c(Br)cnn23)cc1Cl | System = CDK-2 enzyme, complexed with cyclin A (Homo sapiens, UniProt P24941) | IC50 = ____
output: 2

input: Can you handle Cc1noc(C)c1-c1cc(Nc2ccc(F)cc2)n2nccc2n1 next?
output: 13400
